Values compiled from paper PMC2635573.

tested on: CCRF-CEM leukemia cells; assay: cells; assay type: cell-based, human; details: Homo sapiens, CCRF-CEM, 24 h, read-out: IC50 − BCPP
ENDPOINT_LABEL: IC50 (nM)
Number in nM, nothing else.

CN(Cc1cnc2nc(N)nc(N)c2n1)c1ccc(C(=O)N[C@@H](CCC(=O)O)C(=O)O)cc1 [Methotrexate] :: 7.3

IN: # IC50 lookup, item COc1ccc(/C=C\c2cc(OC)c(OC)c(OC)c2)cc1O
OUT: 2.3
